Below: a set of entries, each annotated with reported Relative Activity.
Target: T1, proteolytic ADAM33 polypeptide (wild-type ADAM33 catalytic domain with Ser-Gly-His6 Tag, expressed in … (Homo sapiens (Human), UniProt Q9BZ11 204-409))
T1 sequence: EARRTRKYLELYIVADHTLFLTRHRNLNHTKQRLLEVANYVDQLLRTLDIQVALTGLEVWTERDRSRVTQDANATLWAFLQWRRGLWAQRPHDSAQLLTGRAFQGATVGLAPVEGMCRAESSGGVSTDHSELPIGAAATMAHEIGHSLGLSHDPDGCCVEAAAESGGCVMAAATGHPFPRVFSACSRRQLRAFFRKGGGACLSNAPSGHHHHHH
Assay: cell-based or functional assay
Ends that are not written are not given here.
Kindly provide the number alone.

Solved entries:
Ac-YEVAHQKLVF-NH2 [Ac-Tyr-Glu-Val-Ala-His-Gln-Lys-Leu-Val-Phe-NH2 (SEQ ID NO: 13)] :: 1
YEVAHQKLAF-OH [YEVAH*QKLAF-OH (SEQ ID NO: 7)] :: 1.1
SGYEVAHQKLA-OH [SGYEVAH*QKLA-OH (SEQ ID NO: 9)] :: 0.5
SGYEVAHQKLAFFA-OH [SGYEVAH*QKLAFFA-OH (SEQ ID NO: 11)] :: 1.2

Quick note, Relative Activity for EVAHQKLA-OH [EVAH*QKLA-OH (SEQ ID NO: 37)] landed at 0.1

Quick note, Relative Activity for YEVAHQKLA-OH [YEVAH*QKLA-OH (SEQ ID NO: 12)] landed at 0.9

Quick note, Relative Activity for Ac-VAHQKL-NH2 [Ac-VAH*QKL-NH2 (SEQ ID NO: 38)] landed at 0
